Listed next: entries and their corresponding Plant response rating, Foxtail, Giant.
test system: giant foxtail; experiment: Test C pre-/postemergence herbicide test; type: in vivo, Setaria faberi; details: 500 g ai/ha; scale 0 to 100 (0 no effect, 100 complete control); visual, 12 to 14 days; preemergence
Just the number, please, no unit attached.

>  <Molecule>
CCn1nc(C(C)(C)C)cc1C(=O)Nc1cncc(C(=O)N(C)C)n1

>  <Plant response rating, Foxtail, Giant>
100

$$$$
>  <Molecule>
CCN1N=C(C(C)(C)C)CC1C(=O)Nc1cc(C(=O)N2CCCC2)ccc1F (racemic)

>  <Plant response rating, Foxtail, Giant>
100

$$$$
>  <Molecule>
CCn1nc(C(C)(C)C)cc1C(=O)Nc1cc(C(=O)N2CCCC2)ccc1F

>  <Plant response rating, Foxtail, Giant>
100

$$$$
>  <Molecule>
CCC1=NN(C(C)(C)C)CC1C(=O)Nc1cc(C(=O)N2CC=CC2)ccc1F (racemic)

>  <Plant response rating, Foxtail, Giant>
85

$$$$
>  <Molecule>
CCn1nc(C2(C)CC2)cc1C(=O)Nc1cccc(C(=O)N2CC=CC2)c1

>  <Plant response rating, Foxtail, Giant>
90

$$$$

Form: item CCC1=NN(C(C)(C)C)CC1C(=O)Nc1cc(C(=O)N2CCCC2)ccc1F (racemic) ; test system giant foxtail; Plant response rating, Foxtail, Giant: 80

---

Here the recorded Velvetleaf plant response rating is given for each entry.
system: velvetleaf; assay: Test B pre-/postemergence herbicide test; format: in vivo, Abutilon theophrasti; conditions: postemergence, 125 g ai/ha; visual rating, scale 0 (no effect) to 100 (complete control)
Write the value as a bare number.

Velvetleaf plant response rating reported for this compound CCn1nc(C(C)(C)C)cc1C(=O)Nc1cc(C(N)=O)ccc1F : 0

Velvetleaf plant response rating measured on CCc1nc(C(C)(C)C)sc1C(=O)Nc1cc(C(=O)N(C)CC)ccc1F = 30

Recorded Velvetleaf plant response rating (compound CCn1nc(C(C)(C)C)cc1C(=O)Nc1cccc(C(=O)N2CC=CC2)c1 ): 10

Sure, the documented Velvetleaf plant response rating for CCn1nc(C(C)(C)C)cc1C(=O)Nc1nc(OC)cc(SCF)n1 is 0

Velvetleaf plant response rating recorded for this compound, CCn1nc(C(C)(C)C)cc1C(=O)Nc1cccc(C(=O)OC)c1C , is 0

CCn1nc(C(C)(C)C)cc1C(=O)Nc1cc(C(=O)N2CCOCC2)ccc1F has a reported Velvetleaf plant response rating of 50

Please fill in: Velvetleaf plant response rating reported for CCn1nc(C(C)(C)C)cc1C(=O)Nc1cccc(C(C)=NO)c1 = 50

The recorded Velvetleaf plant response rating for entry CCn1nc(C(C)(C)C)cc1C(=O)Nc1cccc(S(=O)(=O)C(F)(F)F)c1 equals 30

Notebook: CC(=O)c1cc(NC(=O)c2cc(C(C)(C)C)nn2C)ccc1F , Velvetleaf plant response rating read as 0

---

tested on: giant foxtail; experiment: Test B pre-/postemergence herbicide test; assay type: in vivo, Setaria faberi; details: 125 g ai/ha; visual rating, scale 0 (no effect) to 100 (complete control); postemergence
Measured Foxtail, Giant plant response rating accompanies every entry in the list below.
// no unit string in output, number only

Field: example entries. Status: answers known.
>  <Cpd smiles>
CCc1nn(C2CCCC2)nc1C(=O)Nc1cccc(C(=O)N(C)C)c1

>  <Target or system>
giant foxtail

>  <Measured parameter>
Foxtail, Giant plant response rating

>  <Endpoint value>
20

$$$$
>  <Cpd smiles>
C=CCN(CC=C)C(=O)c1cccc(NC(=O)c2nn(C(C)C)nc2CC)c1

>  <Target or system>
giant foxtail

>  <Measured parameter>
Foxtail, Giant plant response rating

>  <Endpoint value>
10

$$$$
>  <Cpd smiles>
C#CCNC(=O)c1cccc(NC(=O)c2cc(C(C)(C)C)nn2C)n1

>  <Target or system>
giant foxtail

>  <Measured parameter>
Foxtail, Giant plant response rating

>  <Endpoint value>
0

$$$$
>  <Cpd smiles>
CCn1nc(C2(C)CC2)cc1C(=O)Nc1cccc(C(=O)N2CC=CC2)c1

>  <Target or system>
giant foxtail

>  <Measured parameter>
Foxtail, Giant plant response rating

>  <Endpoint value>
30

$$$$
>  <Cpd smiles>
CCc1nn(C(C)(C)C)nc1C(=O)Nc1cc(C(=O)N2CCCCC2)ccc1F

>  <Target or system>
giant foxtail

>  <Measured parameter>
Foxtail, Giant plant response rating

>  <Endpoint value>
10

$$$$
>  <Cpd smiles>
CCn1nc(C(C)(C)C)cc1C(=O)Nc1cncc(C(=O)NCC(F)(F)F)n1

>  <Target or system>
giant foxtail

>  <Measured parameter>
Foxtail, Giant plant response rating

>  <Endpoint value>
10

$$$$
>  <Cpd smiles>
CCNC(=O)c1ccc(F)c(N(C(C)=O)C(=O)c2cc(C(C)(C)C)nn2CC)c1

>  <Target or system>
giant foxtail

>  <Measured parameter>
Foxtail, Giant plant response rating

>  <Endpoint value>
30

$$$$

Just so you know, measured Foxtail, Giant plant response rating for CCc1cn(C(C)(C)C)nc1C(=O)Nc1cccc(C(=O)N(C)C)n1 came out at 0

---

system: barnyardgrass; assay: Test A pre-/postemergence herbicide test; type: in vivo, Echinochloa crus-galli; conditions: Preemergence, 500 g ai/ha; visual rating, 0 to 100 scale (0 no effect, 100 complete control)
Barnyardgrass plant response rating for assorted compounds
Give the value as a plain number.

>  <Cpd smiles>
C=CCOC(=O)c1cccc(NC(=O)c2cc(C(C)(C)C)nn2CC)c1C

>  <Measured parameter>
Barnyardgrass plant response rating

>  <Endpoint value>
20

$$$$
>  <Cpd smiles>
CCn1nc(C(C)(C)C)cc1C(=O)Nc1cccc2c1CNC2=O

>  <Measured parameter>
Barnyardgrass plant response rating

>  <Endpoint value>
25

$$$$
>  <Cpd smiles>
CCNC(=O)c1cc(C)nc(NC(=O)c2cc(C(C)(C)C)nn2CC)c1

>  <Measured parameter>
Barnyardgrass plant response rating

>  <Endpoint value>
70

$$$$

Let us move to another entry and its Barnyardgrass plant response rating.
Record CCCCn1nc(C(C)(C)C)cc1C(=O)Nc1cccc(C(=O)N(CC)CC)c1 has barnyardgrass Barnyardgrass plant response rating equal to 0

---

system: Surinam grass; assay: Test B pre-/postemergence herbicide test; format: in vivo, Urochloa decumbens; details: Postemergence, 500 g ai/ha; visual rating after 13 to 15 days, scale 0 (no effect) to 100 (complete control)
Measured parameter: Plant response rating, Surinam Grass

>  <Cpd smiles>
CCOC(=O)c1cccc(NC(=O)c2cc(C(C)(C)C)nn2CCF)c1

>  <Plant response rating, Surinam Grass>
40

$$$$
>  <Cpd smiles>
C#CCOC(=O)c1cccc(NC(=O)c2cc(C(C)(C)C)nn2CC)c1

>  <Plant response rating, Surinam Grass>
60

$$$$
>  <Cpd smiles>
CCn1nc(C(C)(C)C)cc1C(=O)Nc1cccc(C(C)=NO)c1

>  <Plant response rating, Surinam Grass>
10

$$$$
>  <Cpd smiles>
CCC(=NO)c1cccc(NC(=O)c2cc(C(C)(C)C)nn2C)c1

>  <Plant response rating, Surinam Grass>
40

$$$$

Plant response rating, Surinam Grass value, target or system Surinam grass, for CCn1nc(C(C)(C)C)cc1C(=O)Nc1cccc(C(=O)NOC)c1 : 10

---

tested on: kochia; test: Test C pre-/postemergence herbicide test; format: in vivo, Kochia scoparia; details: Preemergence, 500 g ai/ha; scale 0 to 100, 0 no effect, 100 complete control
Kochia plant response rating: recorded values
Write the number on its own, no unit after it.

>  <Cpd smiles>
CCCn1nc(C(C)(C)C)cc1C(=O)Nc1cccc(C(=O)NCC)c1

>  <Target or system>
kochia

>  <Endpoint value>
100

$$$$
>  <Cpd smiles>
CCNC(=O)c1cc(C)nc(NC(=O)c2cc(C(C)(C)C)nn2CC)c1

>  <Target or system>
kochia

>  <Endpoint value>
90

$$$$

// field: Kochia plant response rating; key: CCn1nc(C(C)(C)C)cc1C(=O)Nc1cc(C#N)ccc1F ; value = 100

CCn1nc(C(C)(C)C)cc1C(=O)Nc1cccc(C(C)=NO)c1 has a reported Kochia plant response rating of 100

get_value(item= CCN(CC)C(=O)c1cccc(NC(=O)c2cc(C(C)(C)C)nn2CC)n1 , readout=Kochia plant response rating) returns 80

---

tested on: common ragweed; assay: Test C pre-/postemergence herbicide test; type: in vivo, Ambrosia elatior; design: key: 0 = no effect, 100 = complete control; conditions: 250 g ai/ha; scale 0-100; preemergence
Measured parameter: Plant response rating, Ragweed
Number, no unit, nothing else.

>  <Compound>
CCC1=NN(C(C)(C)C)CC1C(=O)Nc1cc(C(=O)N2CCCC2)ccc1F (racemic)

>  <Plant response rating, Ragweed>
100

$$$$
>  <Compound>
CCn1nc(C(C)(C)C)cc1C(=O)Nc1cc(C(=O)N2CCCC2)ccc1F

>  <Plant response rating, Ragweed>
100

$$$$
>  <Compound>
CCN1N=C(C(C)(C)C)CC1C(=O)Nc1cc(C(=O)N2CCCC2)ccc1F (racemic)

>  <Plant response rating, Ragweed>
70

$$$$

Lab book: Plant response rating, Ragweed of CCc1nn(C(C)(C)CC)nc1C(=O)Nc1cccc(C(=O)N(C)C)c1 noted as 100

// recorded Plant response rating, Ragweed for Cc1nn(C(C)(C)C)nc1C(=O)Nc1cccc(C(=O)N(C)C)c1 : 100

The reported value for CCn1nc(C2(C)CC2)cc1C(=O)Nc1cccc(C(=O)N2CC=CC2)c1 in terms of Plant response rating, Ragweed is 70

Kindly note the recorded Plant response rating, Ragweed for CCn1nc(C(C)(C)C)cc1C(=O)Nc1cncc(C(=O)N(C)C)n1 , which is 100

Briefly, Plant response rating, Ragweed measured for CCNC(=O)c1cccc(NC(=O)c2nn(C(C)(C)CC)nc2CC)c1 : 50
